- Test system: SCLC strain SHP-77
- Protocol Text: Colorimetric tetrazolium (MTT) assay for cell survival, SCLC strain SHP-77
- Assay type: cell-based, human
- Conditions Used: SCLC strain SHP-77 in vitro
- Experimental: In general, Anti-bradykinin activity was determined by the classical guinea pig ileum assay and on Chinese hamster ovary (CHO) cells expressing cloned human bradykinin B2 receptors. Anti-tumor activity was determined on cultured human cancer cell lines using the standard tetrazolium (MTT) assay. […]
Returns the class for an entry based on its MTT: ED50 for killing of SCLC strain SHP-77 in vitro. Class ranges: LOW = under 4 µM, MID = from 4 µM up to 20 µM, HIGH = 20 µM and over

[[record]]
compound = "CC1(C)CC(NC(=O)C(Cc2ccc3ccccc3c2)NC(=O)CCSSCCC(=O)NC(Cc2ccc3ccccc3c2)C(=O)NC2CC(C)(C)NC(C)(C)C2)CC(C)(C)N1 (centres unmarked)"
qualitative_label = "HIGH"

[[record]]
compound = "CC1(C)CC(NC(=O)[C@H](Cc2ccc(OCc3c(Cl)cccc3Cl)cc2)NC(=O)/C=C/c2c(F)c(F)c(F)c(F)c2F)CC(C)(C)N1"
qualitative_label = "LOW"

[[record]]
compound = "CN(C(=O)C(Cc1cc(I)c(OCc2c(Cl)cccc2Cl)c(I)c1)NC(=O)C=Cc1c(F)c(F)c(F)c(F)c1F)C1CC(C)(C)NC(C)(C)C1 (centres unmarked)"
qualitative_label = "LOW"

[[record]]
compound = "CCOC(=O)N1CCC(NC(=O)C(Cc2ccc3ccccc3c2)NC(=O)C=Cc2ccc(N)cc2)CC1 (centres unmarked)"
qualitative_label = "HIGH"

[[record]]
compound = "CC1(C)CC(NC(=O)Cc2ccc(NC(=NC3CCCCC3)NC3CCCCC3)cc2)CC(C)(C)N1"
qualitative_label = "HIGH"

[[record]]
compound = "CC1CN(C(=O)[C@H](Cc2ccc3ccccc3c2)NC(=N)CCCCCCCCCCCCC(=N)N[C@@H](Cc2ccc3ccccc3c2)C(=O)N2CC(C)OC(C)C2)CC(C)O1 (some centres unmarked)"
qualitative_label = "MID"

[[record]]
compound = "CN(C(=O)C(Cc1ccc(OCc2c(Cl)cccc2Cl)cc1)NC(=O)C=Cc1c(F)c(F)c(F)c(F)c1F)C1CC(C)(C)NC(C)(C)C1 (centres unmarked)"
qualitative_label = "LOW"

[[record]]
compound = "Cc1cc(NC(=O)C(Cc2ccc3ccccc3c2)NC(=O)C=Cc2c(F)c(F)c(F)c(F)c2F)c2ccccc2n1 (centres unmarked)"
qualitative_label = "HIGH"

[[record]]
compound = "CN(C)c1ccc(CNC(=O)C(Cc2ccc(OCc3c(Cl)cccc3Cl)cc2)NC(=O)C=Cc2c(F)c(F)c(F)c(F)c2F)cc1 (centres unmarked)"
qualitative_label = "HIGH"

[[record]]
compound = "CC1(C)CC(NC(=O)C(Cc2ccc(-c3ccccc3)cc2)NC(=O)C=Cc2cccnc2)CC(C)(C)N1 (centres unmarked)"
qualitative_label = "MID"

[[record]]
compound = "CC1(C)CC(NC(=O)C2Cc3ccccc3CN2C(=O)C=Cc2c(F)c(F)c(F)c(F)c2F)CC(C)(C)N1 (centres unmarked)"
qualitative_label = "MID"

[[record]]
compound = "CC1(C)CC(NC(=O)C(Cc2csc3ccccc23)NC(=NC2CCCCC2)NC2CCCCC2)CC(C)(C)N1 (centres unmarked)"
qualitative_label = "HIGH"

[[record]]
compound = "COC(=O)C1(NC(=O)[C@H](Cc2ccc3ccccc3c2)NC(=NC2CCCCC2)NC2CCCCC2)CC(C)(C)NC(C)(C)C1 [M244A]"
qualitative_label = "MID"

[[record]]
compound = "CC1(C)CC(NC(=O)C(Cc2ccc3ccccc3c2)NC(=O)C=Cc2ccc(C(F)(F)F)cc2)CC(C)(C)N1 (centres unmarked)"
qualitative_label = "LOW"


* * *

- Test system: SCLC strain SHP-77
- Protocol Text: Colorimetric tetrazolium (MTT) assay for cell survival, SCLC strain SHP-77
- Assay type: cell-based, human
- Conditions Used: SCLC strain SHP-77 in vitro
Binary call on MTT: ED50 for killing of SCLC strain SHP-77 in vitro: true from 4 µM upward, false beneath that.

[[record]]
compound = "CC1(C)CC(NC(=O)[C@H](Cc2c[nH]c3ccccc23)NC(=NC2CCCCC2)NC2CCCCC2)CC(C)(C)N1"
qualitative_label = "true"

[[record]]
compound = "CC1(C)CC(NC(=O)C(Cc2ccc(OCc3ccccc3)cc2)NC(=O)C=Cc2c(F)c(F)c(F)c(F)c2F)CC(C)(C)N1 (centres unmarked)"
qualitative_label = "false"

[[record]]
compound = "CC1(C)CC(NC(=O)[C@H](Cc2ccc3ccccc3c2)NC(=N)CCCCCCCCCCCCC(=N)N[C@@H](Cc2ccc3ccccc3c2)C(=O)NC2CC(C)(C)NC(C)(C)C2)CC(C)(C)N1 [M254-2]"
qualitative_label = "true"

[[record]]
compound = "CC1(C)CC(NC(=O)[C@H](Cc2csc3ccccc23)NC(=N)CCCCCCCCCCCCC(=N)N[C@@H](Cc2csc3ccccc23)C(=O)NC2CC(C)(C)NC(C)(C)C2)CC(C)(C)N1"
qualitative_label = "true"

[[record]]
compound = "CC1(C)CC(NC(=O)C(Cc2cccc3ccccc23)NC(=O)C=Cc2ccc(NC(=O)CCCCCCCCCCC(=O)Nc3ccc(C=CC(=O)NC(Cc4cccc5ccccc45)C(=O)NC4CC(C)(C)NC(C)(C)C4)cc3)cc2)CC(C)(C)N1 (centres unmarked)"
qualitative_label = "false"


* * *

GPI: pA2 for bradykinin antagonist activity on isolated guinea pig ileum values by entry
- System: bradykinin response of isolated guinea pig ileum
- Protocol Text: Anti-bradykinin activity on isolated guinea pig ileum
- Conditions Used: isolated guinea pig ileum; pD2 of bradykinin is 7.4; higher numbers indicate higher potency
Readout Kind: GPI: pA2 for bradykinin antagonist activity on isolated guinea pig ileum

[[record]]
compound = "O=C(C[C@H](NC(=O)[C@H](Cc1ccc2ccccc2c1)NC(=NC1CCCCC1)NC1CCCCC1)C(=O)O)NC1CN2CCC1CC2 (stereo partly shown) [M188B]"
readout_number = 5.5

[[record]]
compound = "CC1(C)CC(NC(=O)C(CC(=O)O)NC(=O)Cc2ccc(NC(=O)C=Cc3c(F)c(F)c(F)c(F)c3F)cc2)CC(C)(C)N1 (stereo not shown)"
readout_number = 4.7

[[record]]
compound = "CC1(C)CC(NC(=O)C(CC(=O)O)NC(=O)Cc2ccc(NC(=NC3CCCCC3)NC3CCCCC3)cc2)CC(C)(C)N1 (stereo not shown)"
readout_number = 4.9

[[record]]
compound = "CC1(C)CC(NC(=O)[C@@H](Cc2ccc3ccccc3c2)NC(=NC2CCCCC2)NC2CCCCC2)CC(C)(C)N1 [M262]"
readout_number = 5.3

[[record]]
compound = "O=C(O)CC(NC(=O)C(Cc1ccc2ccccc2c1)NC(=NC1CCCCC1)NC1CCCCC1)C(=O)O (stereo not shown)"
readout_number = 4.9

[[record]]
compound = "CN(C(=O)[C@H](Cc1ccc(OCc2c(Cl)cccc2Cl)cc1)NC(=O)c1nc(Cl)c(Cl)c(N)c1Cl)C1CC(C)(C)NC(C)(C)C1"
readout_number = 5.4

[[record]]
compound = "O=C(C=Cc1c(F)c(F)c(F)c(F)c1F)Nc1ccc(C(=O)N[C@@H](Cc2ccc3ccccc3c2)C(=O)O)cc1"
readout_number = 5.1


* * *

- Test system: bradykinin response of isolated guinea pig ileum
- Protocol Text: Anti-bradykinin activity on isolated guinea pig ileum
- Conditions Used: Table 3, cyclic peptides
Measured GPI: pA2 for bradykinin antagonist activity on isolated guinea pig ileum, listed per entry for reference.
Readout Kind: GPI: pA2 for bradykinin antagonist activity on isolated guinea pig ileum

[[record]]
substance = "c[DArg-Arg-Add-DF5F-Oic-Arg] [M870]"
system_name = "bradykinin response of isolated guinea pig ileum"
readout_number = 5.3

[[record]]
substance = "c[DArg-Arg-Add-Ser-DF5F-Oic-Arg] [M874]"
system_name = "bradykinin response of isolated guinea pig ileum"
readout_number = 5.0

[[record]]
substance = "c[DArg-Arg-Aud-DIgl-PFF-Arg] [M850]"
system_name = "bradykinin response of isolated guinea pig ileum"
readout_number = 5.1

[[record]]
substance = "c[DArg-Arg-Ava-Ser-DIgl-PFF-Arg] [M902]"
system_name = "bradykinin response of isolated guinea pig ileum"
readout_number = 5.5

[[record]]
substance = "c[DArg-Arg-Pro-Hyp-Gly-Igl-Ser-DIgl-Oic-Arg] [B10302]"
system_name = "bradykinin response of isolated guinea pig ileum"
readout_number = 5.2

[[record]]
substance = "c[Bala-DArg-Arg-Eac-Ser-DF5F-Oic-Arg] [M910]"
system_name = "bradykinin response of isolated guinea pig ileum"
readout_number = 5.2

[[record]]
substance = "c[DArg-Arg-Aud-DF5F-Oic-Arg] [M868-2]"
system_name = "bradykinin response of isolated guinea pig ileum"
readout_number = 6.1

[[record]]
substance = "c[DArg-Arg-Ava-Ser-DF5F-Oic-Arg] [M908]"
system_name = "bradykinin response of isolated guinea pig ileum"
readout_number = 4.9

[[record]]
substance = "Aca-c[DArg-Arg-Pro-Hyp-Gly-Thi-Ser-Nig-Oic-Arg] [B10304]"
system_name = "bradykinin response of isolated guinea pig ileum"
readout_number = 6.4

[[record]]
substance = "c[DArg-Arg-Aud-Ser-DF5F-Oic-Arg] [M876]"
system_name = "bradykinin response of isolated guinea pig ileum"
readout_number = 5.4

[[record]]
substance = "c[Ava-Igl-Ser-DF5F-Oic-Arg] [M824]"
system_name = "bradykinin response of isolated guinea pig ileum"
readout_number = 5.2


The values you see were collected from patent US7071168B2.
